Listing of recorded IC50 by entry.
experimental.system: TEM-1 (Escherichia coli, UniProt P62593)
Sequence (P62593 24-286 limits assumed): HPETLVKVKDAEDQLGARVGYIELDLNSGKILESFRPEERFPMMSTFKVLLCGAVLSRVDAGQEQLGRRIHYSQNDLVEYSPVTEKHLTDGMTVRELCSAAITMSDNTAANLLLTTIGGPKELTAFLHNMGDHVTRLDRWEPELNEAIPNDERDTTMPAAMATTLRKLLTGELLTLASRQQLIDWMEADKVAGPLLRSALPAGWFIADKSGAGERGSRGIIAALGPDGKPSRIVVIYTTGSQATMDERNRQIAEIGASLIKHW
method: β-Lactamase inhibitory activity test, nitrocefin substrate
Format: biochemical
test.context: TEM-1, enzyme family A; 100 µM nitrocefin, 37°C, 10 minutes preincubation; read-out: Inhibitory activity (IC50)

Here is how some molecules turned out for IC50.
> print(dat)
                                   molecule  metric  test.result
1  CS(=O)(=O)n1ccc2c1CN1CC2N(OS(=O)(=O)O)C1=O (stereo not drawn)    IC50       < 1 µM
2  O=C1N2Cc3c(ccn3S(=O)(=O)c3ccccc3)C(C2)N1OS(=O)(=O)O (stereo not drawn)    IC50       < 1 µM

Query :: Report IC50 for `CS(=O)(=O)n1ccc2c1CN1C[C@@H]2N(OS(=O)(=O)O)C1=O` please.
Result :: < 1 µM

---

experimental.system: TEM-1 (Escherichia coli, UniProt P62593)
method: β-Lactamase inhibitory activity test, nitrocefin substrate
Type: biochemical
Listing of recorded IC50 by entry.

Here is how some compounds turned out for IC50.
> print(dat)
                                   compound                       experimental.system  test.result
1  O=C1N2Cc3c(ccn3S(=O)(=O)c3cccnc3)[C@H](C2)N1OS(=O)(=O)O  TEM-1 (Escherichia coli, UniProt P62593)       < 1 µM
2  NC(=O)C1c2c(ccn2S(=O)(=O)C2CC2)C2CN1C(=O)N2OS(=O)(=O)O (centres unmarked)  TEM-1 (Escherichia coli, UniProt P62593)     > 100 µM

Query :: Report IC50 for CS(=O)(=O)n1ccc2c1C(C(N)=O)N1CC2N(OS(=O)(=O)O)C1=O (centres unmarked) please.
Result :: < 1 µM

Query :: Report IC50 for `Cn1cc(S(=O)(=O)n2ccc3c2CN2C[C@@H]3N(OS(=O)(=O)O)C2=O)cn1` please.
Result :: < 1 µM

Query :: Report IC50 for `CCS(=O)(=O)n1ccc2c1CN1C[C@@H]2N(OS(=O)(=O)O)C1=O` please.
Result :: < 1 µM

---

experimental.system: UniProt:Q9L4P2
Sequence (Q9L4P2 18-273): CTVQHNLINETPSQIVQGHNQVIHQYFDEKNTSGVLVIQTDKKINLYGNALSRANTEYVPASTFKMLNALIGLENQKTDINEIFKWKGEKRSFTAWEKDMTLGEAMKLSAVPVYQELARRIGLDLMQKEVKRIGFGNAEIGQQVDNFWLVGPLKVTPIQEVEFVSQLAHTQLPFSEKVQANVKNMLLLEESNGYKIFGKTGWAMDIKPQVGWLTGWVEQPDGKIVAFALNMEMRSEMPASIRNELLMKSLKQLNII
method: β-Lactamase inhibitory activity test, nitrocefin substrate
pIC50: −log10 of the molar value.
metric: pIC50

> print(dat)
                                   compound  metric   test.result
1  CS(=O)(=O)n1ccc2c1C(C(N)=O)N1CC2N(OS(=O)(=O)O)C1=O (centres unmarked)   pIC50  4.00 to 5.00
2  CCS(=O)(=O)n1ccc2c1CN1C[C@@H]2N(OS(=O)(=O)O)C1=O   pIC50  5.00 to 6.00
3  O=C1N2Cc3c(ccn3S(=O)(=O)c3cccnc3)[C@H](C2)N1OS(=O)(=O)O   pIC50        > 6.00
4  CS(=O)(=O)n1ccc2c1CN1C[C@@H]2N(OS(=O)(=O)O)C1=O   pIC50        > 6.00
5  O=C1N2Cc3c(ccn3S(=O)(=O)c3ccccc3)C(C2)N1OS(=O)(=O)O (centres unmarked)   pIC50        > 6.00

Query :: Report pIC50 for NC(=O)C1c2c(ccn2S(=O)(=O)C2CC2)C2CN1C(=O)N2OS(=O)(=O)O (centres unmarked) please.
Result :: < 4.00

Query :: Report pIC50 for CS(=O)(=O)n1ccc2c1CN1CC2N(OS(=O)(=O)O)C1=O (centres unmarked) please.
Result :: > 6.00

Query :: Report pIC50 for `Cn1cc(S(=O)(=O)n2ccc3c2CN2C[C@@H]3N(OS(=O)(=O)O)C2=O)cn1` please.
Result :: 5.00 to 6.00
